SYSTEM: hGYS1 enzyme (recombinant hGYS1/GN1 protein) (Homo sapiens (Human))
ASSAY PROTOCOL: GYS1 coupled enzyme assay (PK/LDH)
CONDITION NOTES: hGYS1/GN1 50 nM, UDP-Glucose 0.8 mM, G6P 1 mM; geometric mean of at least 2 runs
Catalogue of compounds with associated IC50
OBSERVABLE: IC50 (nM)

[
  {
    "COMPOUND": "O=C(N[C@@H](c1ccccc1)c1ccc(C2CC2)c(F)c1)[C@@H]1[C@H]2C[C@H]2CN1C(=O)Cc1cnn[nH]1",
    "VAL": 447
  },
  {
    "COMPOUND": "CC(C)c1ccc([C@@H](NC(=O)[C@@H]2C[C@@H](F)CN2C(=O)c2ccc3c(c2)NC(=O)CO3)c2ccccc2)cc1",
    "VAL": 989
  },
  {
    "COMPOUND": "CC(C)c1ccc([C@@H](NC(=O)[C@@H]2C[C@@H](F)CN2C(=O)Cc2cscn2)c2ccccc2)cc1",
    "VAL": 48
  },
  {
    "COMPOUND": "CC(=O)N1C[C@H](F)C[C@H]1C(=O)N[C@@H](c1ccccc1)c1ccc(C(C)C)cc1",
    "VAL": 387
  },
  {
    "COMPOUND": "Cc1nnc(CC(=O)N2C[C@H](F)C[C@H]2C(=O)N[C@@H](c2ccccc2)c2ccc(C(C)C)cc2)o1",
    "VAL": 50
  },
  {
    "COMPOUND": "CC(C)c1ccc([C@@H](NC(=O)[C@@H]2C[C@@H](F)CN2C(=O)Cc2cccn3c(=O)[nH]nc23)c2ccccc2)nc1",
    "VAL": 26
  },
  {
    "COMPOUND": "CC(=O)N1C[C@H](F)C[C@H]1C(=O)NC(c1cccc(-c2ccn[nH]2)c1)c1ccc(C(C)C)c(F)n1 (single isomer, unassigned)",
    "VAL": 47
  },
  {
    "COMPOUND": "CN1C(=O)C(CC(=O)N2C[C@H](F)C[C@H]2C(=O)N[C@@H](c2ccccc2)c2ccc(C3CC3)c(F)c2)c2ccccc21 (stereo partly shown)",
    "VAL": 291
  },
  {
    "COMPOUND": "Cn1c(=O)ccn(CC(=O)N2C[C@H](F)C[C@H]2C(=O)N[C@@H](c2ccccc2)c2ccc(C3CC3)c(F)c2)c1=O",
    "VAL": 39
  },
  {
    "COMPOUND": "CC(C)c1ccc([C@@H](NC(=O)[C@@H]2C[C@@H](F)CN2C(=O)CNC(=O)N(C)C)c2ccccc2)nc1",
    "VAL": 43
  },
  {
    "COMPOUND": "CC(C)c1ccc([C@@H](NC(=O)[C@@H]2C[C@@H]3C[C@@H]3N2C(=O)Cc2cnn[nH]2)c2ccccc2)cc1F",
    "VAL": 142
  },
  {
    "COMPOUND": "Cc1cn(CC(=O)N2C[C@H](F)C[C@H]2C(=O)N[C@@H](c2ccccc2)c2ccc(C3CC(F)(F)C3)c(F)c2)c(=O)[nH]c1=O",
    "VAL": 7
  },
  {
    "COMPOUND": "CC(C)c1ccc([C@@H](NC(=O)[C@@H]2C[C@@H](F)CN2C(=O)CN2CCOCC2=O)c2ccccc2)cc1",
    "VAL": 101
  }
]

###

SYSTEM: hGYS1 enzyme (recombinant hGYS1/GN1 protein) (Homo sapiens (Human), UniProt P13807)
Sequence (P13807 whole entry): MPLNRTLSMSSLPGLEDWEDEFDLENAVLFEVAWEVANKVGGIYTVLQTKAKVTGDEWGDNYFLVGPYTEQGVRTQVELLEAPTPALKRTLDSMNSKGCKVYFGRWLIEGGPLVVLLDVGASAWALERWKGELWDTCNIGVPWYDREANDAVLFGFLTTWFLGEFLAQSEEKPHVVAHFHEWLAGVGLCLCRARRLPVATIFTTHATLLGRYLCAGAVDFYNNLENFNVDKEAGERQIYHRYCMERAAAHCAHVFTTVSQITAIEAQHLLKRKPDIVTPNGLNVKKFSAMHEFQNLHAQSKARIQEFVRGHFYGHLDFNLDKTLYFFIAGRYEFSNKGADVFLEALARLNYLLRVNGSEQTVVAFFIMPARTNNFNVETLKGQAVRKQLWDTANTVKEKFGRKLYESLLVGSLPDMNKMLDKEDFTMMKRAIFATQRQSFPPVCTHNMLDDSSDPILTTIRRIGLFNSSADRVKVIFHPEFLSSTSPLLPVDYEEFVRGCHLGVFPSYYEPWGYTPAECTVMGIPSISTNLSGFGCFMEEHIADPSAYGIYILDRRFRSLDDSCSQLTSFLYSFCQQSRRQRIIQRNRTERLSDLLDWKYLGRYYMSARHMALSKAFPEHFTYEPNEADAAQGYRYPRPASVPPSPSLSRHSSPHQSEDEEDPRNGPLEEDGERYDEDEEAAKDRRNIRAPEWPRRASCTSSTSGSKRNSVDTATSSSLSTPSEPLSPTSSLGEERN
Sequence (P46976 whole entry partner): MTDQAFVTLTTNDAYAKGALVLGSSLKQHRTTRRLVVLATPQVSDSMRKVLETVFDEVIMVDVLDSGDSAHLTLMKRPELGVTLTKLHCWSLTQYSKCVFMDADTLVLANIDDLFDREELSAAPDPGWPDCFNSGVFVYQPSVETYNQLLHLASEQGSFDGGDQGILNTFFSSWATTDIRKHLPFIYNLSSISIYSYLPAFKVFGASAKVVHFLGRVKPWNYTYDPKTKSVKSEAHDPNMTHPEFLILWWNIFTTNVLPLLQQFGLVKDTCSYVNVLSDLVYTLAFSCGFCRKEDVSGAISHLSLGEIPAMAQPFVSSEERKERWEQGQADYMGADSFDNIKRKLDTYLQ
ASSAY PROTOCOL: GYS1 coupled enzyme assay (PK/LDH)
Type: biochemical
CONDITION NOTES: hGYS1/GN1 50 nM, UDP-Glucose 0.8 mM, G6P 1 mM; geometric mean of at least 2 runs
pIC50: −log10 of the molar value.

[
  {
    "MOLECULE": "CC(=O)N1C[C@H](F)C[C@H]1C(=O)N[C@@H](c1ccc(C(C)C)cc1)c1ccn[nH]1",
    "SYSTEM": "hGYS1 enzyme (recombinant hGYS1/GN1 protein) (Homo sapiens (Human), UniProt P13807)",
    "pIC50": 5.94
  },
  {
    "MOLECULE": "CC(C(=O)N1C[C@H](F)C[C@H]1C(=O)N[C@@H](c1ccccc1)c1ccc(C2(C)CC2)c(F)n1)n1cnc2ccccc21 (single isomer, unassigned) [Compound 587]",
    "SYSTEM": "hGYS1 enzyme (recombinant hGYS1/GN1 protein) (Homo sapiens (Human), UniProt P13807)",
    "pIC50": 6.96
  },
  {
    "MOLECULE": "CC(C)c1c(F)cc(C(NC(=O)[C@@H]2C[C@@H](F)CN2C(=O)Cc2cnn[nH]2)c2ccccc2)cc1F (single isomer, unassigned) [Compound 667]",
    "SYSTEM": "hGYS1 enzyme (recombinant hGYS1/GN1 protein) (Homo sapiens (Human), UniProt P13807)",
    "pIC50": 7.64
  },
  {
    "MOLECULE": "O=C(N[C@@H](c1ccccc1)c1ccc(C2CC2)c(F)n1)[C@@H]1C[C@@H](F)CN1C(=O)CNc1ncco1",
    "SYSTEM": "hGYS1 enzyme (recombinant hGYS1/GN1 protein) (Homo sapiens (Human), UniProt P13807)",
    "pIC50": 7.26
  },
  {
    "MOLECULE": "COc1nc(C(NC(=O)[C@@H]2C[C@@H](F)CN2C(=O)Cc2cnn[nH]2)c2ccccc2)ccc1C(C)C (single isomer, unassigned)",
    "SYSTEM": "hGYS1 enzyme (recombinant hGYS1/GN1 protein) (Homo sapiens (Human), UniProt P13807)",
    "pIC50": 5.66
  },
  {
    "MOLECULE": "CC(C)c1ccc([C@@H](NC(=O)[C@@H]2C[C@@H](F)CN2C(=O)Cc2c[nH]c3ccccc23)c2ccccc2)cc1",
    "SYSTEM": "hGYS1 enzyme (recombinant hGYS1/GN1 protein) (Homo sapiens (Human), UniProt P13807)",
    "pIC50": 7.92
  },
  {
    "MOLECULE": "CC(C)c1ccc([C@@H](NC(=O)[C@@H]2C[C@@H](F)CN2C(=O)CCc2ccc(=O)[nH]n2)c2ccccc2)cc1",
    "SYSTEM": "hGYS1 enzyme (recombinant hGYS1/GN1 protein) (Homo sapiens (Human), UniProt P13807)",
    "pIC50": 6.68
  },
  {
    "MOLECULE": "CC1(c2ccc([C@H](NC(=O)[C@@H]3C[C@@H](F)CN3C(=O)Cc3n[nH]c4ccccc34)c3ccccc3)nc2F)CC1",
    "SYSTEM": "hGYS1 enzyme (recombinant hGYS1/GN1 protein) (Homo sapiens (Human), UniProt P13807)",
    "pIC50": 5.59
  },
  {
    "MOLECULE": "O=C(N[C@@H](c1ccccc1)c1ccc(C2CC(F)(F)C2)c(F)n1)[C@@H]1C[C@@H](F)CN1C(=O)CNC(=O)N1CCC1",
    "SYSTEM": "hGYS1 enzyme (recombinant hGYS1/GN1 protein) (Homo sapiens (Human), UniProt P13807)",
    "pIC50": 8.10
  },
  {
    "MOLECULE": "CC(C)c1ccc([C@@H](NC(=O)[C@@H]2C[C@@H](F)CN2C(=O)CCc2ncc[nH]2)c2ccccc2)cc1",
    "SYSTEM": "hGYS1 enzyme (recombinant hGYS1/GN1 protein) (Homo sapiens (Human), UniProt P13807)",
    "pIC50": 6.86
  },
  {
    "MOLECULE": "O=C(N[C@@H](c1ccccc1)c1ccc(C2CC2)c(F)c1)[C@@H]1C[C@@H](F)CN1C(=O)Cc1nnn[nH]1",
    "SYSTEM": "hGYS1 enzyme (recombinant hGYS1/GN1 protein) (Homo sapiens (Human), UniProt P13807)",
    "pIC50": 6.72
  },
  {
    "MOLECULE": "Cc1nc(C(NC(=O)[C@@H]2C[C@@H](F)CN2C(=O)Cc2nnc(C(F)F)o2)c2ccccc2)ccc1C(C)C (single isomer, unassigned)",
    "SYSTEM": "hGYS1 enzyme (recombinant hGYS1/GN1 protein) (Homo sapiens (Human), UniProt P13807)",
    "pIC50": 6.65
  }
]

###

Recorded IC50 for the following compounds
SYSTEM: hGYS2 enzyme (recombinant hGYS2/GN1 protein) (Homo sapiens (Human), UniProt P54840)
Sequence (P54840 whole entry): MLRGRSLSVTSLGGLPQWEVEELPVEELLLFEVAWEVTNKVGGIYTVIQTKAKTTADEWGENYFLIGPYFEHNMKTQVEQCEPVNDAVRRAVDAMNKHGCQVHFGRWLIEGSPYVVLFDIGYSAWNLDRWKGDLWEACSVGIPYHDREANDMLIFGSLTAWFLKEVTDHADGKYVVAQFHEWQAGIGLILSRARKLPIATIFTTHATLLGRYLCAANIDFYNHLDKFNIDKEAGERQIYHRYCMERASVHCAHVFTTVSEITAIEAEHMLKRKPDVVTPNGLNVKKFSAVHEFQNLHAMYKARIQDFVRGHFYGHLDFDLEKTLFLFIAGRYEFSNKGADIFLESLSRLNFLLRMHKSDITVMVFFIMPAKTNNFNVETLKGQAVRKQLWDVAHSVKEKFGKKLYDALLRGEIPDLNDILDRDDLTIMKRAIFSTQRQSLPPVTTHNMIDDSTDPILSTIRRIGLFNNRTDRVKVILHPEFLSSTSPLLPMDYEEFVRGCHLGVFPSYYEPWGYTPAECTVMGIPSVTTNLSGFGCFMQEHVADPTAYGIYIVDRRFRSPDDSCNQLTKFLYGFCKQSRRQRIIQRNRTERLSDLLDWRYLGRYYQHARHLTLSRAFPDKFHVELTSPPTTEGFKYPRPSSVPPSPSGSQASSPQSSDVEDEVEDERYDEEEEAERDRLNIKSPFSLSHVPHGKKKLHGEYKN
Sequence (P46976 whole entry partner): as the sequence (P46976 whole entry partner) above
ASSAY PROTOCOL: GYS2 coupled enzyme assay (PK/LDH)
CONDITION NOTES: geometric mean of at least 2 assay runs on separate days, read-out: Avg_IC50

[
  {
    "COMPOUND": "CCn1c(=O)c(C)cn(CC(=O)N2C[C@H](F)C[C@H]2C(=O)N[C@H](c2ccccc2)c2ccc(C3CC(F)(F)C3)c(F)n2)c1=O [Compound 518]",
    "IC50": "> 100 µM"
  },
  {
    "COMPOUND": "CC(C)c1ccc([C@@H](NC(=O)[C@@H]2CCCN2C(=O)C2CC2)c2ccccc2)cc1 [Compound 203]",
    "IC50": "> 100 µM"
  },
  {
    "COMPOUND": "Cc1cn(CC(=O)N2C[C@H](F)C[C@H]2C(=O)N[C@@H](c2ccccc2)c2ccc(C3CC3)c(F)c2)c(=O)[nH]c1=O [Compound 442]",
    "IC50": "> 100 µM"
  },
  {
    "COMPOUND": "Cc1cc(C(NC(=O)[C@@H]2C[C@@H](F)CN2C(=O)Cc2cnn[nH]2)c2ccccc2)cc(F)c1C(C)C (single isomer, unassigned) [Compound 680]",
    "IC50": "93 µM"
  },
  {
    "COMPOUND": "CC(C)c1ccc([C@@H](NC(=O)[C@@H]2C[C@@H](F)CN2C(=O)Cn2cccn2)c2ccccc2)cc1 (stereo in doubt) [Compound 221]",
    "IC50": "> 100 µM"
  },
  {
    "COMPOUND": "CC(C)c1ccc([C@@H](NC(=O)[C@@H]2C[C@@H](F)CN2C(=O)Cc2ccc(F)cn2)c2ccccc2)cc1 [Compound 36]",
    "IC50": "> 100 µM"
  }
]
